# MEASUREMENT_TARGET: SALL4 ZFC4 R900W (HT-SELEX) (Mus musculus, UniProt Q8BX22 870-940, R900W)
# Sequence: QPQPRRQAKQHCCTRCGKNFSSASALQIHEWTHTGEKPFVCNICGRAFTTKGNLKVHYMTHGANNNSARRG
# TEST_PROTOCOL: HT-SELEX; high values mean tight binding
# MEASUREMENT_PARAMETERS: protein: recombinant; vector His6-GST; dsDNA, one strand shown
binding signal reference
Expressed in fold-change vs cycle 0, but write only the number.

ATTTGG
1.09
CTCAAA
1.2
GCTTTA
1.09

Return reported binding signal; argument: "ATTGTG" 1.18

Further, for "ACAAAC" ? 1.23

Also, "ATGGAG" please. 1.04

Next up: "ACGAAA" 1.12

# repeat for "CATCTC" 1.01

---

Catalogue of sequences with associated binding signal
# MEASUREMENT_TARGET: SALL4 ZFC4 WT (HT-SELEX) (Mus musculus, UniProt Q8BX22 870-940)
# Sequence: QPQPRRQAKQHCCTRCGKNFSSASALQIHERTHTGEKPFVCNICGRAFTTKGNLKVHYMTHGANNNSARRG
# TEST_PROTOCOL: HT-SELEX; high values mean tight binding
# MEASUREMENT_PARAMETERS: protein: recombinant; vector His6-GST; dsDNA, one strand shown
Reply numerically in fold-change vs cycle 0, unit not repeated.

Some solved cases for reference:
ATACGA
1.26
ATGATG
1.43
ACCATA
1.42
CAATAG
1.21
GAACTA
1.37
GCATTA
1.15
AGAATA
2.17
ACTATG
1.34
GGTATA
1.3

Kindly consider the entry below.
Given the entry "ATTCTC" , report its measured binding signal. 1.41

---

# MEASUREMENT_TARGET: SALL4 ZFC4 G921D (HT-SELEX) (Mus musculus, UniProt Q8BX22 870-940, G921D)
# Sequence: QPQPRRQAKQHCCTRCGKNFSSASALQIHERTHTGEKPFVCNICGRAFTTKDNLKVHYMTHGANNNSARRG
# TEST_PROTOCOL: HT-SELEX; high values mean tight binding
# MEASUREMENT_PARAMETERS: protein: recombinant; vector His6-GST; dsDNA, one strand shown
Listed below: binding signal values for each entry.
Record the value in fold-change vs cycle 0, omitting the unit from your answer.

Look up binding signal: "GATCAA" 1.36

---

# MEASUREMENT_TARGET: SALL4 ZFC4 R900W (HT-SELEX) (Mus musculus, UniProt Q8BX22 870-940, R900W)
# Sequence: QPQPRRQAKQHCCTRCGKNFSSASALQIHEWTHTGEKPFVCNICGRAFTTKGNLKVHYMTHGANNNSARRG
# TEST_PROTOCOL: HT-SELEX; high values mean tight binding
# MEASUREMENT_PARAMETERS: protein: recombinant; vector His6-GST; dsDNA, one strand shown
Collected binding signal values appear next to each entry.
Form entry: value (fold-change vs cycle 0) — number only.

Record "ATACCA" : what is its binding signal with SALL4 ZFC4 R900W (HT-SELEX) (Mus musculus, UniProt Q8BX22 870-940, R900W)? 1.39
